Target: SIK2 kinase (full length, Thermo Fisher) (Homo sapiens, UniProt Q9H0K1)
Construct: SIK2 kinase (full length, Thermo Fisher); purchased Thermo Fisher
Sequence (Q9H0K1 whole entry): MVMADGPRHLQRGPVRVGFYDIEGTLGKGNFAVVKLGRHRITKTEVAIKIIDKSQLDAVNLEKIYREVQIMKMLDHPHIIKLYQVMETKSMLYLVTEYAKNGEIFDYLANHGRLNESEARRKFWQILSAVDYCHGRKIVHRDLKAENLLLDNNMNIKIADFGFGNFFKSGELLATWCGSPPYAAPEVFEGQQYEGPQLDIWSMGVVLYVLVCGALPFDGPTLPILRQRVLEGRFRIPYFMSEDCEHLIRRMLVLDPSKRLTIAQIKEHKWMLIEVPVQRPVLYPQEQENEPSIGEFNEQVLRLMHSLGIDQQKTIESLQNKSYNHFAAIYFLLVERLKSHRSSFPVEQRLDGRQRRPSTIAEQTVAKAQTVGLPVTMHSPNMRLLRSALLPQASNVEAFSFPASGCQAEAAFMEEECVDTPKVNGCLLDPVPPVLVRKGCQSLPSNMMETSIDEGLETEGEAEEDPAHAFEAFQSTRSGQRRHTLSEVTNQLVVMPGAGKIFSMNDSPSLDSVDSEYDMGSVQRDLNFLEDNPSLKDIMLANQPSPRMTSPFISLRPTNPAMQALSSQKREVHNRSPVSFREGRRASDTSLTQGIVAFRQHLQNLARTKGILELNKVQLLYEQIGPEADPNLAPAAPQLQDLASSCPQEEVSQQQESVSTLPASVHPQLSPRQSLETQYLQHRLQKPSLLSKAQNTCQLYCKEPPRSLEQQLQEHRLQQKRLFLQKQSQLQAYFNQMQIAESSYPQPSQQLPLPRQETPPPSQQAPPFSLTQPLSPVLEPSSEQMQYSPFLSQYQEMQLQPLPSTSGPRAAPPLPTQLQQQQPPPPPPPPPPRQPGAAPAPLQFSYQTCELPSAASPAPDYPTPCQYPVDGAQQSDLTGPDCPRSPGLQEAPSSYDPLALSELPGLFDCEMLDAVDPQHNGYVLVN
Experiment: Biochemical activities determination for SIK2 protein (TR-FRET)
Conditions: 80 uM ATP, 0.5 μM substrate
assay metric: IC50 (nM)

O=C1c2c(cc(-c3coc4cc(-c5cnn(C6CCOCC6)c5)ccc34)cc2OC(F)F)CCN1CC(F)(F)F [Compound 41]: 33

[A] COc1cc(-c2coc3cc(OCCN(C)C)ccc23)cc(OC(F)F)c1C(=O)N[C@@H]1C[C@@H]1F [Compound 73]
[B] O=C(NC1CC1)c1c(OC(F)F)cc(-c2coc3cc(OCCN4CCCC4)ccc23)cc1O[C@H]1CC[C@@H](O)CC1 [Compound 102]
[C] COc1cc(-c2coc3cc(-c4cnn(C5CCN(C)C5)c4)ccc23)cc2c1C(=O)N(CC(F)(F)F)CC2 (stereo not shown) [Compound 51]
Please give the order of these molecules when sorted by IC50, largest value leading. Answer format: the labels, in the requested order.
B, A, C
(B: 2480 nM, A: 24 nM, C: 3.7 nM)

Where these numbers come from: patent US20260085053A1
